# Tested on: cyBCMA
# TEST DETAILS: Kinetics and affinity of cyBCMA/human IgG interactions by SPR (Bio-Rad Proteon XPR36)
# Type: binding, cynomolgus
# CONDITION LABEL: 37° C.

MOLECULE: L3.PY/L3.KF/H2.DY: anti-BCMA antibody (antibody, V domains shown) VH: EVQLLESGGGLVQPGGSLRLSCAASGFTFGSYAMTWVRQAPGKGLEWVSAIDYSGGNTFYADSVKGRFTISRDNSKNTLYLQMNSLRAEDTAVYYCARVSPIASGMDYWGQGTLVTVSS VL: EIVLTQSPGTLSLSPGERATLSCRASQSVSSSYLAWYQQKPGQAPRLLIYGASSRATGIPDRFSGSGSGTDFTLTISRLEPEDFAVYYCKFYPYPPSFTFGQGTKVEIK
ka (1/Ms) cyBCMA @ 37° C. (M⁻¹ s⁻¹): 2.08e+06

MOLECULE: L3.PY/L3.KY/H2.QL: anti-BCMA antibody (antibody, V domains shown) VH: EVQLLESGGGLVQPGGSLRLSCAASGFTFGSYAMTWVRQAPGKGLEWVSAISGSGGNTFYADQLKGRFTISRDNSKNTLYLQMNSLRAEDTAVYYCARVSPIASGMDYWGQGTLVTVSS VL: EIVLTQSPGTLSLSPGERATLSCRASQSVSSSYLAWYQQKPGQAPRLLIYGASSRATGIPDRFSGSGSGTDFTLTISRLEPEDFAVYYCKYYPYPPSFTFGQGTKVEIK
ka (1/Ms) cyBCMA @ 37° C. (M⁻¹ s⁻¹): 2.75e+06
